Target: BRD2(2) (Homo sapiens)
Construct: made in house
Sequence (P25440 344-453 limits assumed): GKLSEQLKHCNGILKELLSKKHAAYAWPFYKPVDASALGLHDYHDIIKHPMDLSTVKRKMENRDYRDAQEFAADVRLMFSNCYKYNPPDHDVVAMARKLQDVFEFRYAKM
Assay: Protein stability (thermal) shift assay, BRD2(2)
Type: binding
Conditions: compound 10 μM, protein 2 μM; average of triplicate
Measurement kind: ΔTm at 10 µM (°C)

Please review the entries below; each comes with its answer.
INSERT INTO measurements (compound, recorded_number) VALUES
  ('Nc1nc(-c2ccc3c(c2)OCCO3)c2nc[nH]c2n1 [Compound 4c]', -0.0273),
  ('COCCc1ccc(OCc2ccc(-c3nc(N)nc4[nH]cnc34)cc2)cc1 [Compound 3h]', 1.2),
  ('COc1cccc(OC(C)C)c1-c1nc(N)nc2[nH]cnc12 [Compound 6b]', -0.3),
  ('Cn1cnc2c(-c3cccc(OCc4ccc(Cl)cc4)c3)nc(N)nc21 [Compound 4e]', 0.6),
  ('Nc1nc(-c2ccc(COc3cccc(C(F)(F)F)c3)cc2)c2nc[nH]c2n1 [Compound 3g]', 0.459);

[a] CCCCOc1cc(Br)cc(-c2nc(N)nc3c2ncn3C)c1 [Compound 5b]
[b] COc1ccc(Cl)cc1-c1nc(O)nc2[nH]cnc12 [Compound 8e]
[c] Clc1nc(Cl)c2nc[nH]c2n1 [Compound 1, 2,6-dichloro-9H-purine]
[d] Nc1nc(-c2ccc(OCc3ccccc3)cc2)c2nc[nH]c2n1 [Compound 3f]
Sort entries by ΔTm at 10 µM from minimum to maximum value. Present the labels in the sequence the task asks for. c, a, b, d

Provenance of the data: paper PMC4403932
